Reported AUC(0-t) values are given for each entry in this list.
# assay procedure: Pharmacokinetics in SD rat
# Assay type: in vivo
# condition summary: male, plasma, po, intragastric administration 10 mg/kg, read-out: Curve area AUC0-t
Only the number, expressed in ng·h/mL, is required.

Here are 5 compounds together with their reported answers.
compound | AUC(0-t), ng·h/mL
COCCC(C(=O)Nc1ccc2nn(C)cc2c1)N1CC(=O)N(c2cc(Cl)ccc2-n2cc(Cl)nn2)CC1=O (stereo not shown) [Example 38] | 3080
COCC[C@@H](C(=O)Nc1ccc2nn(C)cc2c1)N1CC(=O)N(c2cc(Cl)ccc2-n2cc(Cl)nn2)CC1=O [Example 96] | 3860
Cn1cc2cc(NC(=O)C(Cc3ccc(F)cc3)N3CC(=O)N(c4cc(Cl)ccc4-n4cc(Cl)nn4)CC3=O)ccc2n1 (stereo in doubt) [Example 99] | 4850
Cn1ccc(C[C@H](C(=O)Nc2ccc3nn(C)cc3c2)N2CC(=O)N(c3cc(Cl)ccc3-n3cc(Cl)nn3)CC2=O)n1 [Example 113] | 3020
NC(=O)c1ccc(NC(=O)C(Cc2ccccc2)N2CC(=O)N(c3cc(Cl)ccc3-n3cc(Cl)nn3)CC2=O)cc1F (stereo not shown) [Example 36] | 2190

Ask: Look at this compound and give its reported AUC(0-t). Cn1cc2cc(NC(=O)C(CC3CCCCO3)N3CC(=O)N(c4cc(Cl)ccc4-n4cc(Cl)nn4)CC3=O)ccc2n1 (stereo not shown) [Example 117]
Result: 3940

Ask: Look at this compound and give its reported AUC(0-t). O=C(Nc1ccc2nn(C(F)F)cc2c1)C(Cc1ccccc1)N1CC(=O)N(c2cc(Cl)ccc2-n2cc(Cl)nn2)CC1=O (stereo not shown) [Example 45]
Result: 4710

Ask: Look at this compound and give its reported AUC(0-t). Cn1cc2cc(NC(=O)C(Cc3ccccc3)N3CC(=O)N(c4cc(Cl)ccc4-n4cc(Cl)nn4)CC3=O)ccc2n1 (stereo not shown) [Example 25]
Result: 3460

Ask: Look at this compound and give its reported AUC(0-t). Cn1ccc(CC(C(=O)Nc2ccc3nn(C)cc3c2)N2CC(=O)N(c3cc(Cl)ccc3-n3cc(Cl)nn3)CC2=O)n1 (stereo not shown) [Example 111]
Result: 2560

Ask: Look at this compound and give its reported AUC(0-t). Cn1cc2cc(NC(=O)C(Cc3ccc(F)cc3)N3CC(=O)N(c4cc(Cl)ccc4-n4cc(Cl)nn4)CC3=O)ccc2n1 (stereo not shown) [Example 47]
Result: 12200

====

# assay procedure: Pharmacokinetics in SD rat
# Format: in vivo
# condition summary: male, plasma, iv, injection administration 1 mg/kg, read-out: Half-life period T1/2(h) (converted)
# Method: Taking a SD rat as a test animal, the SD rat was administrated with the compound of the present invention by intravenous injection and/or intragastric administration, and drug concentrations in plasma at different times were determined by a IC/MS/MS method to study pharmacokinetic characteristics of the compound of the present invention in the SD rat. […] Contents of the compound to be tested in rat plasma after intravenous injection and intragastric administration were determined by LC-MS/MS.
measurement type: half-life
For clarity, give the value followed by its unit.

Here are 3 compounds together with their reported answers.
compound | half-life
Cn1cc2cc(NC(=O)C(Cc3ccc(F)cc3)N3CC(=O)N(c4cc(Cl)ccc4-n4cc(Cl)nn4)CC3=O)ccc2n1 (stereo in doubt) [Example 99] | 0.595 h
Cn1ccc(C[C@H](C(=O)Nc2ccc3nn(C)cc3c2)N2CC(=O)N(c3cc(Cl)ccc3-n3cc(Cl)nn3)CC2=O)n1 [Example 113] | 0.5 h
COCC[C@@H](C(=O)Nc1ccc2nn(C)cc2c1)N1CC(=O)N(c2cc(Cl)ccc2-n2cc(Cl)nn2)CC1=O [Example 96] | 0.942 h

Now turn to the next compound.
Ask: Look at this compound and give its reported half-life. Cn1cc2cc(NC(=O)C(Cc3ccccc3)N3CC(=O)N(c4cc(Cl)ccc4-n4cc(Cl)nn4)CC3=O)ccc2n1 (stereo not shown) [Example 25]
Result: 0.818 h

====

# assay procedure: Pharmacokinetics in SD rat
# Format: in vivo
# condition summary: male, plasma, iv, injection administration 1 mg/kg, read-out: Curve area AUC0-t
Reported AUC(0-t) values are given for each entry in this list.
Only the number, expressed in ng·h/mL, is required.

Here are 3 molecules together with their reported answers.
molecule | AUC(0-t) [ng·h/mL]
Cn1cc2cc(NC(=O)C(Cc3ccc(F)cc3)N3CC(=O)N(c4cc(Cl)ccc4-n4cc(Cl)nn4)CC3=O)ccc2n1 (stereo in doubt) | 326
Cn1cc2cc(NC(=O)C(Cc3ccccc3)N3CC(=O)N(c4cc(Cl)ccc4-n4cc(Cl)nn4)CC3=O)ccc2n1 (stereo not shown) | 431
Cn1ccc(C[C@H](C(=O)Nc2ccc3nn(C)cc3c2)N2CC(=O)N(c3cc(Cl)ccc3-n3cc(Cl)nn3)CC2=O)n1 | 552

Now turn to the next molecule.
Ask: Look at this molecule and give its reported AUC(0-t). COCC[C@@H](C(=O)Nc1ccc2nn(C)cc2c1)N1CC(=O)N(c2cc(Cl)ccc2-n2cc(Cl)nn2)CC1=O
Result: 532

====

# assay procedure: Pharmacokinetics in cynomolgus macaque
# Assay type: in vivo
# condition summary: male, cynomolgus monkey, plasma, po, intragastric administration 15 mg/kg, read-out: Curve area AUC0-t
measurement type: AUC(0-t) (ng·h/mL)
Only the number, expressed in ng·h/mL, is required.

Ask: Look at this compound and give its reported AUC(0-t). COCC[C@@H](C(=O)Nc1ccc2nn(C)cc2c1)N1CC(=O)N(c2cc(Cl)ccc2-n2cc(Cl)nn2)CC1=O [Example 96]
Result: 4210

====

# target: Native human Factor XIa protease (Homo sapiens)
# Construct: The Native human Factor XIa protease was purchased from Abcam; purchased Abcam ab62411
# Sequence (P03951 388-625 limits assumed): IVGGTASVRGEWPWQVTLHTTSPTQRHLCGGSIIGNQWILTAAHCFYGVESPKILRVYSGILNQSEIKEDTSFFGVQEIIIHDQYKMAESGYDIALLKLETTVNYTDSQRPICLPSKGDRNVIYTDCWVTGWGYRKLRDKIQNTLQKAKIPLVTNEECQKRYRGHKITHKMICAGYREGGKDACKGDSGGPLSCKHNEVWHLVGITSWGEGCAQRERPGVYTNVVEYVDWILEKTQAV
# Sequence (P03951 19-387 partner limits assumed): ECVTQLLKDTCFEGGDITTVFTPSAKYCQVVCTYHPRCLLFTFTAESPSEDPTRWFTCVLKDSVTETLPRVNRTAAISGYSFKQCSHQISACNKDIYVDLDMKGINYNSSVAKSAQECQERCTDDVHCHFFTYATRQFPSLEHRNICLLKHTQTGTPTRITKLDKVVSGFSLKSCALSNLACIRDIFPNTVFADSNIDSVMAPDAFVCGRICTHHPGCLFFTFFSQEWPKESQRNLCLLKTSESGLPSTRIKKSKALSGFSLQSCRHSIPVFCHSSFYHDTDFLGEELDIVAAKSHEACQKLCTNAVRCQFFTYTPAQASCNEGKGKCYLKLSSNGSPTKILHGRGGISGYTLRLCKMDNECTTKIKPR
# assay procedure: Inhibition of activity of Factor XIa protease (chromogenic substrate S-2366)
# Type: biochemical
# condition summary: S-2366 1 mM, 37° C. 10 minutes, absorption at 405 nm
measurement type: IC50 (nM)
Only the number, expressed in nM, is required.

Here are 3 compounds together with their reported answers.
compound | target | unit abbreviation | IC50
Cn1cc2cc(NC(=O)C(Cc3ccccc3)N3CC(=O)N(c4cc(Cl)ccc4-n4cc(C(F)(F)F)nn4)CC3=O)ccc2n1 (stereo not shown) | Native human Factor XIa protease (Homo sapiens) | nM | 32.7
COc1ccc(CC(C(=O)Nc2ccc3nn(C)cc3c2)N2CC(=O)N(c3cc(Cl)ccc3-n3cc(Cl)nn3)CC2=O)cc1 (stereo not shown) | Native human Factor XIa protease (Homo sapiens) | nM | 35.8
O=C(O)c1cccc(NC(=O)C(Cc2ccccc2)N2CC(=O)N(c3cc(Cl)ccc3-n3cnnn3)CC2=O)c1 (stereo not shown) | Native human Factor XIa protease (Homo sapiens) | nM | 7.8

Now turn to the next compound.
Ask: Look at this compound and give its reported IC50. COC(=O)N1CCc2cc(NC(=O)C(Cc3ccccc3)N3CC(=O)N(c4cc(Cl)ccc4-n4cnnn4)CC3=O)ccc21 (stereo not shown)
Result: 17.7

====

# assay procedure: Pharmacokinetics in SD rat
# Format: in vivo
# condition summary: male, plasma, po, intragastric administration 10 mg/kg, read-out: Half-life period T1/2(h) (converted)
Reported half-life values are given for each entry in this list.

compound | half-life
O=C(Nc1ccc2nn(C(F)F)cc2c1)C(Cc1ccccc1)N1CC(=O)N(c2cc(Cl)ccc2-n2cc(Cl)nn2)CC1=O (stereo not shown) | 2.04 h

Ask: Look at this compound and give its reported half-life. Cn1cc2cc(NC(=O)C(Cc3ccc(F)cc3)N3CC(=O)N(c4cc(Cl)ccc4-n4cc(Cl)nn4)CC3=O)ccc2n1 (stereo not shown) [Example 47]
Result: 2.13 h

Ask: Look at this compound and give its reported half-life. Cn1cc2cc(NC(=O)C(Cc3ccccc3)N3CC(=O)N(c4cc(Cl)ccc4-n4cc(Cl)nn4)CC3=O)ccc2n1 (stereo not shown)
Result: 0.895 h

Ask: Look at this compound and give its reported half-life. COCC[C@@H](C(=O)Nc1ccc2nn(C)cc2c1)N1CC(=O)N(c2cc(Cl)ccc2-n2cc(Cl)nn2)CC1=O
Result: 1.54 h

====

# assay procedure: Metabolic stability in mouse liver microsomes
# Type: in vitro ADME
# condition summary: mouse liver microsomes 0.5 mg/mL, 1 μM compound, NADPH; read-out: Half-life period (T1/2 min) Mouse
measurement type: half-life at 1 μM
For clarity, give the value followed by its unit.

Ask: Look at this compound and give its reported half-life at 1 μM. COCC[C@@H](C(=O)Nc1ccc2nn(C)cc2c1)N1CC(=O)N(c2cc(Cl)ccc2-n2cc(Cl)nn2)CC1=O [Example 96]
Result: 5.53 h

====

# assay procedure: Pharmacokinetics in ICR mouse
# Type: in vivo
# condition summary: male, plasma, po, intragastric 5 mg/kg vs injection 1 mg/kg, read-out: Bioavailability F(%)
measurement type: bioavailability (%)
Only the number, expressed in %, is required.

Ask: Look at this compound and give its reported bioavailability. COCC[C@@H](C(=O)Nc1ccc2nn(C)cc2c1)N1CC(=O)N(c2cc(Cl)ccc2-n2cc(Cl)nn2)CC1=O [Example 96]
Result: 69.8
